TARGET_UNDER_TEST: UniProt:O43614
ASSAY: Human orexin 2 receptor radioligand binding (competitive, [3H]-EMPA, HEK293 cell preparations)
CONDITION_PARAMETERS: human orexin 2 receptor, [3H]-EMPA competition binding; read-out: hOX2 Ki (nm)
I'd appreciate it if you marked entries 1 (yes) when Ki is lower than 1000 nM and 0 (no) when it is not.

Answered examples (4):
O=C(c1cccc(F)c1-c1ncco1)N1[C@@H]2CC[C@H]1[C@H](Nc1cnc(C(F)(F)F)cn1)C2 | 1 (yes)
CCOc1ccnc(Cl)c1C(=O)N1C2CCC1C(COc1ccccn1)C2 (racemic) | 0 (no)
Cn1ncc(-c2ccccc2)c1C(=O)N1C2CCC1C(COc1ccccn1)C2 (racemic) | 0 (no)
Cc1cccc(C(=O)N2[C@@H]3CC[C@H]2[C@H](Nc2ncc(C(F)(F)F)cn2)C3)c1-c1ncccn1 | 0 (no)

Query block: Please state whether Ki is below 1000 nM for Cc1nc(C(=O)N2C3CCC2C(COc2ccc(F)cn2)C3)c(-c2ccccc2F)s1 (racemic)
Result block: 1 (yes)

Query block: Please state whether Ki is below 1000 nM for CN(c1cnc(C(F)(F)F)cn1)[C@@H]1C[C@H]2CC[C@@H]1N2C(=O)c1cccc(F)c1-c1ncccn1
Result block: 0 (no)

Query block: Please state whether Ki is below 1000 nM for O=C(c1cccc2cccnc12)N1C2CCC1C(COc1ccc(F)cn1)C2 (racemic)
Result block: 0 (no)

====

TARGET_UNDER_TEST: human orexin 2 receptor (Homo sapiens (Human), UniProt O43614)
Sequence (O43614 whole entry): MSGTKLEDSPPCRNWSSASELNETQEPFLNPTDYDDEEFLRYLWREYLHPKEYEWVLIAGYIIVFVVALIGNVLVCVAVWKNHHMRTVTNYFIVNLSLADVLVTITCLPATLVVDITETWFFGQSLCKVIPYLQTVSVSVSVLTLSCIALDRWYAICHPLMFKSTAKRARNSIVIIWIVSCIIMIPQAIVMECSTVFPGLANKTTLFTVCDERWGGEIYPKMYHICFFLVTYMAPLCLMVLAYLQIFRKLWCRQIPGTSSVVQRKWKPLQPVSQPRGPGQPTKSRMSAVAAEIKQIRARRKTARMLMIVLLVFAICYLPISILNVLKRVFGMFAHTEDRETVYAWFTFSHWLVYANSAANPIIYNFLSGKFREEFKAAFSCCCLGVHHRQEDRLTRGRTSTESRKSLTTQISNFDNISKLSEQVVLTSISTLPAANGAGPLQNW
ASSAY: Human orexin 2 receptor radioligand binding (competitive, [3H]-EMPA, HEK293 cell preparations)
CONDITION_PARAMETERS: hOX2 Ki (nm)
PROPERTY: pKi
Answer as the number alone; pKi is minus log10 of concentration in mol/L.

Sample records with pKi:
Cc1cc(C)nc(NC2CC3CCC2N3C(=O)c2cc(F)ccc2-n2nccn2)n1 (racemic) | 6.06
COc1ccc(-n2nccn2)c(C(=O)N2C3CCC2C(COc2ccc(F)cn2)C3)c1 (racemic) | 7.14
O=C(c1ccccc1-n1nccn1)N1C2CCC1C(Nc1ccc(C(F)(F)F)nn1)C2 (racemic) | 5.31

Here is another molecule to look at.
Query block: GET /values?readout=pKi&item= Cc1ccc(-c2ncccn2)c(C(=O)N2C3CCC2C(COc2ccccn2)C3)n1 (racemic)
Result block: 6.30

====

Recorded measurements of Ki, one per entry
TARGET_UNDER_TEST: human orexin 2 receptor (Homo sapiens (Human), UniProt O43614)
ASSAY: Human orexin 2 receptor radioligand binding (competitive, [3H]-EMPA, HEK293 cell preparations)
CONDITION_PARAMETERS: human orexin 2 receptor, [3H]-EMPA competition binding; read-out: hOX2 Ki (nm)
Respond with the bare value in µM.

Cc1ccc(OCC2CC3CCC2N3C(=O)c2ccccc2-c2nc(C)no2)nc1 (racemic) [Example 137] | 0.425
CCOc1ccc(C)nc1C(=O)N1C2CCC1C(Nc1nc(C)cc(C)n1)C2 (racemic) [Example 203] | 0.49
CCOc1ncc(Br)cc1C(=O)N1C2CCC1C(COc1ccccn1)C2 (racemic) [Example 157] | 0.537

Here is another compound to look at.
Query block: What reported Ki corresponds to Cc1cccc(C(=O)N2C3CCC2C(COc2ccc(F)cn2)C3)c1-n1nccn1 (racemic) [Example 125] on human orexin 2 receptor (Homo sapiens (Human), UniProt O43614)?
Result block: 0.132
